Please respond with reported plasma prothrombin time for every item in the list.
system: thromboplastin clotting time in human plasma; assay: prothrombin time test (thromboplastin clotting time in human plasma); assay type: biochemical; conditions: 90 micrograms per milliliter of plasma; 37° C.; human plasma
Counter-ions that a name gives are not always drawn.
Output spec: scalar in s, unitless text.

# plasma prothrombin time (molecule: CCCCCCOc1ccc(CC(CNCC)c2ccccc2)cc1 (centres unmarked) [Example 28] ) is 35

# plasma prothrombin time (molecule: CCCCCCOc1ccc(CC(CN)c2ccc(OC)c(OC)c2)cc1 (centres unmarked) [Example 16, hydrochloride] ) is 81

# plasma prothrombin time (molecule: COc1ccc(C(CN)Cc2cccc3ccccc23)cc1 (centres unmarked) [Example 24] ) is 28

# plasma prothrombin time (molecule: CCCCCOc1ccc(CC(CN)c2ccc(OC)c(OC)c2)cc1 (centres unmarked) [Example 15] ) is 30

# plasma prothrombin time (molecule: CCCCCCCCOc1ccc(CC(CN)c2ccc(OC)c(OC)c2)cc1 (centres unmarked) [Example 17, hydrochloride] ) is 81

# plasma prothrombin time (molecule: CCCCCCCCCOc1ccc(CCC(C)NCCN(C)C)cc1 (centres unmarked) [Example 54, dihydrochloride] ) is 99

# plasma prothrombin time (molecule: CCCCCCOc1ccc(CC(CNC)c2ccccc2)cc1 (centres unmarked) [Example 29] ) is 31

# plasma prothrombin time (molecule: CCCCCOc1ccc(CC(CN)c2ccc(-c3ccccc3)cc2)cc1.Cl (centres unmarked) [Example 12] ) is 33

# plasma prothrombin time (molecule: CCCCCCCCCOc1ccc(CCC(C)NCCN2CCOCC2)cc1 (centres unmarked) [Example 53, dihydrochloride] ) is 53

# plasma prothrombin time (molecule: CCCCCCCOc1ccc(CCC(C)N)cc1 (centres unmarked) [Example 51, hydrochloride] ) is 52
